Values were extracted from the supplement of paper PMC10567573.

Readings of protein stability index for the listed variants
B1: RIPK4 (parent)
chain: VSVNAQTLDGRTPLHLAAQRGHYR

# Variants of: B1
# assay_procedure: protein stability index of a GFP-peptide fusion (GPS, HEK-293T) (PSI 1-6); higher = more stable;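 note: lentivirally expressed fusions sorted by FACS into six bins by GFP to DsRed ratio, PSI derived from sequencing read proportions per bin multiplied by bin number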
# recorded_conditions: c terminus: a fixed tail appended
measured_quantity: protein stability index

> print(dat)
    variant  test.value
 1      V1E        3.97
 2      Q6K        3.21
 3     A18M        2.42
 4      D9M        2.62
 5     G21V        2.93
 6      D9H        3.15
 7     R11G        2.99
 8      V3D        4.13
 9      V3H        4.67
10     T12P        3.54
11      V3M        3.73
12      S2M        2.89
13      L8A        3.92
14     L16I        3.42
15     T12C        2.81
16      Q6I        2.69
17     H15V         3.2
18     P13I        2.17
19      V3P        3.83
20      V3T        3.53
21     T12I         3.1
22     Q19T        3.58
23      V1F        3.39
24     A17C        3.15
25     G10W        2.48
26      D9R        3.31
27      T7N        3.64
28      S2K        3.41
29     A17V        3.35
30     L16N        3.97
31     T12D        3.68
32     L14G        3.52
33      D9S        3.04
34      N4M        2.66
35     P13C        2.22
36      N4Q        3.41
37     R11Q        3.62
38     L16W        3.09
39     Y23D        4.49
40      Q6G        3.13
41     R24T        2.99
42     Y23L        3.51
43     L16F        3.11
44      V1P        3.85
45     Q19L        2.52
46      N4F        2.06
47      S2D        4.08
48     P13T        2.92
49      V1C        2.54
50      V3I        2.67
51     Q19S        3.08
52     P13W        1.75
53      L8M        3.75
54     R24I        2.05
55      N4D        3.86
56      T7R        3.32
57      S2Y        2.82
58     A18V        2.97
59     L14S        3.83
60      S2G        3.97
61     A18S        3.38
62     H22K        3.89
63     H22D        3.23
64      S2R        3.33
65     G10R        3.55
66     R24D         3.3
67      T7C         2.8
68     H22P        2.89
69     A17F        2.26
70     R20V        2.85
71     A17I        2.45
72      N4S        2.86
73     R24A        2.81
74      A5T        3.52
75     G21E        3.58
76     R11P        3.38
77     Y23S        3.83
78      N4R        3.21
79      Q6T        3.44
80     H22F        2.96
81      A5W        2.83
82      L8V        3.92
83     R20P        2.95
84     G10Q         3.6
85     L14R         3.7
86     R11M        2.77
87     H15F        2.58
88     L16G        3.45
89      T7G        3.35
90      T7K        3.36
91     A17G        3.51
